test: qHTS assay for small molecule agonists of the antioxidant response element (ARE) signaling pathway (AID 651741); conditions: HepG2 ARE-bla reporter, beta-lactamase FRET ratio, 16 h; series mostly up to 96 µM
Results filed as inconclusive are left out. Activity calls are given as the source filed them. Calls follow the shape of the dose curve; as a rule, active = well fitted activation curve with a large enough effect in the signal ratio; inconclusive = small, poorly fitted or top-dose-only effect, or effect the other way, or a change in a side signal; inactive = flat fitted curve, though single readings scatter; the % refers to the signal ratio.
QUANTITY KIND: Potency

Sample answers from the record:
> print(dat)
                                   molecule  observed.value
1  CC1COCc2cc3c(cc21)C(C)(C)C(C)C3(C)C (configuration not stated)        inactive
2                       CC(C)=CCC/C(C)=C\CO        inactive
3  CC(C)CC(C)(O)C#CC(C)(O)CC(C)C (configuration not stated)        inactive
4                        NCCCCCCCCCCCC(=O)O        inactive
5                 CCCCCCCC[Si](OCC)(OCC)OCC        inactive

Please report Potency for every entry that follows.
1. OC1CCCCCCCCCCC1
2. C=C(C)C(=O)OCC(CC)(COC(=O)C(=C)C)COC(=O)C(=C)C
3. CC1=CC2C3CC(C=C3C)C2C1 (configuration not stated)
4. CC(C)(C)C1CCC(O)CC1 (configuration not stated)
5. CCCCCCCCCCCCO
6. CCCCCCCCCCCCCCCO
7. COC(=O)c1cccc(C)c1S(=O)(=O)NC(=O)Nc1nc(OCC(F)(F)F)nc(N(C)C)n1

Output line:
1. inactive
2. inactive
3. inactive
4. inactive
5. inactive
6. inactive
7. inactive

Please report Potency for every entry that follows.
1. CC(=O)N(CCN(C(C)=O)C(C)=O)C(C)=O
2. NCCCCCCCCCCC(=O)O
3. CC(C)C(=O)OCC(C)(C)C(O)C(C)C (configuration not stated)
4. CC(C)(N=C=O)c1cccc(C(C)(C)N=C=O)c1
5. CCSC(=O)N(CC(C)C)CC(C)C
6. CCNc1nc(NC(C)CC)nc(OC)n1 (configuration not stated)

Output line:
1: inactive; 2: inactive; 3: inactive; 4: inactive; 5: inactive; 6: inactive

Each recorded value in this set is attributed to PubChem BioAssay (NCATS).
